System tested: MOR
Type: binding
Settings: read-out: Ki (nM ± SEM) MOR; CHO membranes, [3H]DAMGO, mean ± SEM
Square brackets hold non-standard residues; d marks the D form. Peptide text beside a SMILES is read from it.
Experimental readout: Ki (nM)
Respond numerically; units are nM and should not be typed.

Request: For C[C@@H]1NC(=O)[C@H](Cc2c[nH]c3ccccc23)NC(=O)[C@H](Cc2ccccc2)NC(=O)[C@H]2CCCN2C1=O [Peptide 2, cyclo[Ala-DPro-Phe-Trp]] (cyclo(A[dP]FW)) , what is its reported Ki?
Response: 32.1
